Experiment: Growth inhibition of […] NIH3T3 cells harboring RET C634Y mutant incubated for 3 days by MTT assay
Assay type: functional
Details: NIH3T3, 72 h; time 3 day
Mark met only when GI50 stays strictly below 3 µM. Values equal to the cut-off are not met.

Consider the worked cases shown below.
O=C(Nc1ccc(Nc2ncnc3c2OCCN3)cc1)Nc1cc(Cl)cc(Cl)c1    not met
O=C(Nc1ccc(Nc2ncnc3c2OCCN3)cc1)Nc1ccc(C(F)(F)F)cc1    not met
Cc1nc(Nc2ncnc3c2OCCN3)ccc1NC(=O)Nc1cc(C(C)(C)C)on1    not met
O=C(Nc1ccc(Nc2ncnc3c2OCCN3)cc1)Nc1ccc(Cl)c(C(F)(F)F)c1    met
CN1CCOc2c(Nc3ccc(NC(=O)Nc4cc(C(C)(C)C)on4)cc3)ncnc21    not met
CC(C)(C)c1cc(NC(=O)Nc2cccc(Nc3ncnc4c3OCCN4)c2)no1    not met
Cc1cc(C)cc(NC(=O)Nc2ccc(Nc3ncnc4c3OCCN4)cc2)c1    not met
Cc1ccc(F)c(NC(=O)Nc2ccc(Nc3ncnc4c3OCCN4)cc2)c1    not met
O=C(Nc1ccc(Nc2ncnc3c2OCCN3)cc1)Nc1cccs1    not met
CC(C)(C)c1cc(NC(=O)Nc2ccc(Nc3ncnc4c3OCCN4)cc2)no1    met

Ask: Would you kindly verify if GI50 of `Cc1cc(NC(=O)Nc2cc(C(C)(C)C)on2)ccc1Nc1ncnc2c1OCCN2` is strictly less than 3 µM?
Reply: met

Ask: Given `O=C(Nc1ccc(Cl)cc1)Nc1ccc(Nc2ncnc3c2OCCN3)cc1` , is recorded GI50 strictly lower than 3 µM?
Reply: not met

----------
Target: Vascular endothelial growth factor receptor 1 (Homo sapiens)
Sequence (P17948 whole entry): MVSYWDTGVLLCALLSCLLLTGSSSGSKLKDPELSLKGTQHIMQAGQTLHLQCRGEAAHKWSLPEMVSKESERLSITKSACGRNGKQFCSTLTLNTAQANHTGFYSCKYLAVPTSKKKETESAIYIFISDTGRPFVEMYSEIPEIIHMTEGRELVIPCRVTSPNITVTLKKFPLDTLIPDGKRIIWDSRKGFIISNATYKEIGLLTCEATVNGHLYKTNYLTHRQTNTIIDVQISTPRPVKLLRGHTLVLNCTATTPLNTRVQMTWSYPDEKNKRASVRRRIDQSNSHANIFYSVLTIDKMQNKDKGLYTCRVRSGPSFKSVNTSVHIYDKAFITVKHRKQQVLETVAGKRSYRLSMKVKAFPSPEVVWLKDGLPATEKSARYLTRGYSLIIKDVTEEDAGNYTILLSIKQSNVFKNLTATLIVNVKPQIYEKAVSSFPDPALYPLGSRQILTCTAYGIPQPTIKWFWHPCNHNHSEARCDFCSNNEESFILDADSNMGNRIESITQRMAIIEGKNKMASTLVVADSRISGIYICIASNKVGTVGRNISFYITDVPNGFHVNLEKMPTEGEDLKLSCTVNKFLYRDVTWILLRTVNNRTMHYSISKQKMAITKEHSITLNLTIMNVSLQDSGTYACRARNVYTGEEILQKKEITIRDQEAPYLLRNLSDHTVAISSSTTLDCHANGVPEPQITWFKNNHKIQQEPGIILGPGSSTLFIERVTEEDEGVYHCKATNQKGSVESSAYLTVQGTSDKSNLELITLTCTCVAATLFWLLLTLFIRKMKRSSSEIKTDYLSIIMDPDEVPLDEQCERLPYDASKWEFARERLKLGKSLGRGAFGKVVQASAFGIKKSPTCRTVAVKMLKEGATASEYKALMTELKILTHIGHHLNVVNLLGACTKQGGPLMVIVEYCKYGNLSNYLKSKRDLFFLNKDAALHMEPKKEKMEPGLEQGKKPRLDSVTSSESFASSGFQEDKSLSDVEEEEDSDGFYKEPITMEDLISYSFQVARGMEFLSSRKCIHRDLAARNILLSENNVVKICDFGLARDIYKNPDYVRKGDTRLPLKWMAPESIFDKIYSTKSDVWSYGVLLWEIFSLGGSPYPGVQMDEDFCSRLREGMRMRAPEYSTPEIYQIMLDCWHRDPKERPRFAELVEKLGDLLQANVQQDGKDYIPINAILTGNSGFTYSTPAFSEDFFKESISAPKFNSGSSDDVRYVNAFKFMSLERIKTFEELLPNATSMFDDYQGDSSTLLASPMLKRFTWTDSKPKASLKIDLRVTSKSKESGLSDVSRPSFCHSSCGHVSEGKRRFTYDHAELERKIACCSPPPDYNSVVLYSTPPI
assay metric: pIC50
Numbers only, as −log10 of the molar value.

Ask: Respond only with pIC50 recorded for `CC(C)(C)c1cc(NC(=O)Nc2ccc(Nc3ncnc4c3OCCCN4)cc2)no1`
Reply: 8.10

----------
Molecular target: Tyrosine-protein kinase receptor UFO (Homo sapiens)
Assay: Inhibition of recombinant human Axl (473 to end residues) using KKSRGDYMTMQIG as substrate incubated for 40 mins in presence of [gamma-33ATP] by scintillation counting based radiometry assay
assay metric: pIC50
Answers are plain numbers, as −log10 of the molar value.

Ask: Please look at this compound and report its pIC50: `CC(C)(C)c1cc(NC(=O)Nc2ccc(Nc3ncnc4c3OCCCN4)cc2)no1`
Reply: 6.15

----------
Test system: BaF3
Test: Growth inhibition of mouse BaF3 cells harboring RET M918T mutant incubated for 3 days by MTT assay
Assay type: functional
Settings: BaF3, 72 h, time 3 day
I'd be grateful if you could share measured log10 of GI50 for these entries.
Heads up: the numbers are on a log10 scale; they represent GI50 in µM.

Below, each entry is followed by its recorded log10 of GI50 result.
Cc1cc(NC(=O)Nc2cc(C(C)(C)C)on2)ccc1Nc1ncnc2c1OCCN2    0.68
CC(C)(C)c1cc(NC(=O)Nc2ccc(Nc3ncnc4c3OCCCN4)cc2)no1    -0.06

Consider the following items and state reported log10 of GI50 for each.
1. CNC(=O)c1cc(Oc2ccc(NC(=O)Nc3ccc(Cl)c(C(F)(F)F)c3)cc2)ccn1
2. CC(C)(C)c1cc(NC(=O)Nc2ccc(Nc3ncnc4c3OCCN4)cc2F)no1

Reply:
1: 0.11; 2: -0.23

----------
Biological target: Ephrin type-A receptor 2 (Homo sapiens, UniProt P29317)
Sequence (P29317 whole entry, the tested form may be a part): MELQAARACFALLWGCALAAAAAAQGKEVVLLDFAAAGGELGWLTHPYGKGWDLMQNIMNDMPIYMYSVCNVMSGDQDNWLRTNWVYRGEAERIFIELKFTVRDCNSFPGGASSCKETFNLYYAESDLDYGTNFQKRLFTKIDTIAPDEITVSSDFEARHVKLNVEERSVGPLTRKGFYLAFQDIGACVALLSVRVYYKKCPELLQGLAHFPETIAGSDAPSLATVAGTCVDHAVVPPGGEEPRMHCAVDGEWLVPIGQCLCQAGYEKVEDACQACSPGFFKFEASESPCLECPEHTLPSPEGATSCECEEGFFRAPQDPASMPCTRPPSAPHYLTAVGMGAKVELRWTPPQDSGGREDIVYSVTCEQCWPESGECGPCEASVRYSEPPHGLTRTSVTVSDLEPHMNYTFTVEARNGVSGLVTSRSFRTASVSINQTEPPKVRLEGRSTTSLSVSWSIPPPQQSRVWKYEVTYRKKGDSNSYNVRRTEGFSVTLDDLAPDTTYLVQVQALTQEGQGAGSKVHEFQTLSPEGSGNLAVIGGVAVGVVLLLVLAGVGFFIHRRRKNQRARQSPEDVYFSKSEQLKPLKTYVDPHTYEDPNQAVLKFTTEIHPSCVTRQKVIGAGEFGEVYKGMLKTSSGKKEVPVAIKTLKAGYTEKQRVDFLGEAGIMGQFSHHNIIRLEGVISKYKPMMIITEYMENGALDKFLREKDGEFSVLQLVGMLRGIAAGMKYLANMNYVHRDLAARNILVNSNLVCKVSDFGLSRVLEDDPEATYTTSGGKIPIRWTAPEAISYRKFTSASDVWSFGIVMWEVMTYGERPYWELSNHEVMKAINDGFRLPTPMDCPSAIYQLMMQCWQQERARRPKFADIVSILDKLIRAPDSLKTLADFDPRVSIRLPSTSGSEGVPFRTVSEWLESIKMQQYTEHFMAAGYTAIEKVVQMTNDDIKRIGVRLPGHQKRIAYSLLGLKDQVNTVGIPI
Assay: Inhibition of recombinant human EphA2 (596 to 900 residues) using poly(Glu, Tyr) 4:1 as substrate incubated for 40 mins in presence of [gamma-33ATP] by scintillation counting based radiometry assay
assay metric: IC50 (nM)
Answers are plain numbers, in nM.

Ask: Fill in IC50 for record `CC(C)(C)c1cc(NC(=O)Nc2ccc(Nc3ncnc4c3OCCCN4)cc2)no1`
Reply: 104

----------
Molecular target: Mitogen-activated protein kinase 11 (Homo sapiens, UniProt Q15759)
Sequence (Q15759 whole entry): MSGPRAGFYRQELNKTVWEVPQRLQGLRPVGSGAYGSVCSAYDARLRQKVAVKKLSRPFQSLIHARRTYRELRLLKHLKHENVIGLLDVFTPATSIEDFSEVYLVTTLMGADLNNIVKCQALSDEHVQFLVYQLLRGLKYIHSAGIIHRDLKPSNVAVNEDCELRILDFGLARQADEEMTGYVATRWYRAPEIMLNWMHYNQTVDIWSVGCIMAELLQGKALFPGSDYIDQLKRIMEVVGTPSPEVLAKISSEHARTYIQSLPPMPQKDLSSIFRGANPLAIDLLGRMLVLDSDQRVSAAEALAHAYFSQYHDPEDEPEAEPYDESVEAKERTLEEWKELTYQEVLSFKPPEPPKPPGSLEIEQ
Experiment: Inhibition of recombinant human full length SAPK2b using myelin basic protein as substrate incubated for 40 mins in presence of [gamma33P]ATP by scintillation counting based radiometry assay
assay metric: IC50
Note to self: number, then unit, no commentary.

Ask: Tell us which IC50 value is on record for `CC(C)(C)c1cc(NC(=O)Nc2ccc(Nc3ncnc4c3OCCCN4)cc2)no1`
Reply: 50 nM

----------
Target: Casein kinase I isoform delta (Homo sapiens, UniProt P48730)
Sequence (P48730 whole entry, the tested form may be a part, canonical isoform): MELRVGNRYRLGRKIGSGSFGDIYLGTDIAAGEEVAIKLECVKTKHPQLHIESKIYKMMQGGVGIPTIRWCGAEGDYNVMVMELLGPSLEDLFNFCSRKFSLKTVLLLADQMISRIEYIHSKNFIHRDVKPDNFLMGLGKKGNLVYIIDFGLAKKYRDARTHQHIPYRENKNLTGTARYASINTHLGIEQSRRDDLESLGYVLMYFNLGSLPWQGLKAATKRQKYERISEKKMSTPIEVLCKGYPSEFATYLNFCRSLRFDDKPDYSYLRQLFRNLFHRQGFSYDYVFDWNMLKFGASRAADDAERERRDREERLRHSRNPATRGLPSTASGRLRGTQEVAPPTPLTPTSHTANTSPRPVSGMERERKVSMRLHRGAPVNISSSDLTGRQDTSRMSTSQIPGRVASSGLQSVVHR
Test: Inhibition of recombinant human CK1delta (1 to 294 residues) using KRRRALS(p)VASLPGL as substrate incubated for 40 mins in presence of [gamma-33ATP] by scintillation counting based radiometry assay
assay metric: IC50
Put your answer as a value accompanied by its unit after it.

Ask: Report value: IC50, system: Casein kinase I isoform delta (Homo sapiens, UniProt P48730), molecule: `CC(C)(C)c1cc(NC(=O)Nc2ccc(Nc3ncnc4c3OCCCN4)cc2)no1`
Reply: 509 nM

----------
Test: AUC (0 to t) in Sprague-Dawley rat at 10 mg/kg, po measured upto 24 hrs by LC-MS/MS analysis
Type: ADME, organism-based
Set-up: route oral, dose 10 mg/kg, time <=24
Details: in vivo
assay metric: AUC(0-t) at 24 h (µg·h/mL)
Numbers only, in µg·h/mL.

Ask: State its AUC(0-t) at 24 h: `CC(C)(C)c1cc(NC(=O)Nc2ccc(Nc3ncnc4c3OCCCN4)cc2)no1`
Reply: 441

----------
Molecular target: Homeodomain-interacting protein kinase 4 (Homo sapiens, UniProt Q8NE63)
Sequence (Q8NE63 whole entry): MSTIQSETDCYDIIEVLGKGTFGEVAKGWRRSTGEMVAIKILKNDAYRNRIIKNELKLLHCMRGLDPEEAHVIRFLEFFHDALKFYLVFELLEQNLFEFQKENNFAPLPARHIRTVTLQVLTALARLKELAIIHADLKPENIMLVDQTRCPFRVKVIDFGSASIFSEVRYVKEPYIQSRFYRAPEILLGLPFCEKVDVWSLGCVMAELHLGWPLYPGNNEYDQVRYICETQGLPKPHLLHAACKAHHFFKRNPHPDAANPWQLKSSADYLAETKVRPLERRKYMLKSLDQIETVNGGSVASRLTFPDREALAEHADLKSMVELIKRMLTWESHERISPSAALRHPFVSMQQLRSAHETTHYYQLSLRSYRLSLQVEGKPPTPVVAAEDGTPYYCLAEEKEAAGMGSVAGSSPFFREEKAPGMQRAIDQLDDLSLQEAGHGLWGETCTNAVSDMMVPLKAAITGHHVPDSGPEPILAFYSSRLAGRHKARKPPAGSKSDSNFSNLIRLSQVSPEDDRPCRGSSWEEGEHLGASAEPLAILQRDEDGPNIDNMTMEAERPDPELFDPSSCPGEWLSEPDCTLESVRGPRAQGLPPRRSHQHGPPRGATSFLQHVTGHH
assay metric: IC50 (µM)
One number for each entry, in µM.

Ask: Give IC50 only, for `CC(C)(C)c1cc(NC(=O)Nc2ccc(Nc3ncnc4c3OCCCN4)cc2)no1` , using Homeodomain-interacting protein kinase 4 (Homo sapiens, UniProt Q8NE63) data.
Reply: 0.127

----------
Assay: Cmax in Sprague-Dawley rat at 10 mg/kg, po measured upto 24 hrs by LC-MS/MS analysis
Assay type: ADME, organism-based
Parameters: route oral, dose 10 mg/kg, time <=24
Details: in vivo
assay metric: Cmax
State the value with its unit after it.

Ask: Determine its reported Cmax: `CC(C)(C)c1cc(NC(=O)Nc2ccc(Nc3ncnc4c3OCCCN4)cc2)no1`
Reply: 263 µg/mL

----------
Target: Vascular endothelial growth factor receptor 2 (Homo sapiens, UniProt P35968)
Sequence (P35968 whole entry): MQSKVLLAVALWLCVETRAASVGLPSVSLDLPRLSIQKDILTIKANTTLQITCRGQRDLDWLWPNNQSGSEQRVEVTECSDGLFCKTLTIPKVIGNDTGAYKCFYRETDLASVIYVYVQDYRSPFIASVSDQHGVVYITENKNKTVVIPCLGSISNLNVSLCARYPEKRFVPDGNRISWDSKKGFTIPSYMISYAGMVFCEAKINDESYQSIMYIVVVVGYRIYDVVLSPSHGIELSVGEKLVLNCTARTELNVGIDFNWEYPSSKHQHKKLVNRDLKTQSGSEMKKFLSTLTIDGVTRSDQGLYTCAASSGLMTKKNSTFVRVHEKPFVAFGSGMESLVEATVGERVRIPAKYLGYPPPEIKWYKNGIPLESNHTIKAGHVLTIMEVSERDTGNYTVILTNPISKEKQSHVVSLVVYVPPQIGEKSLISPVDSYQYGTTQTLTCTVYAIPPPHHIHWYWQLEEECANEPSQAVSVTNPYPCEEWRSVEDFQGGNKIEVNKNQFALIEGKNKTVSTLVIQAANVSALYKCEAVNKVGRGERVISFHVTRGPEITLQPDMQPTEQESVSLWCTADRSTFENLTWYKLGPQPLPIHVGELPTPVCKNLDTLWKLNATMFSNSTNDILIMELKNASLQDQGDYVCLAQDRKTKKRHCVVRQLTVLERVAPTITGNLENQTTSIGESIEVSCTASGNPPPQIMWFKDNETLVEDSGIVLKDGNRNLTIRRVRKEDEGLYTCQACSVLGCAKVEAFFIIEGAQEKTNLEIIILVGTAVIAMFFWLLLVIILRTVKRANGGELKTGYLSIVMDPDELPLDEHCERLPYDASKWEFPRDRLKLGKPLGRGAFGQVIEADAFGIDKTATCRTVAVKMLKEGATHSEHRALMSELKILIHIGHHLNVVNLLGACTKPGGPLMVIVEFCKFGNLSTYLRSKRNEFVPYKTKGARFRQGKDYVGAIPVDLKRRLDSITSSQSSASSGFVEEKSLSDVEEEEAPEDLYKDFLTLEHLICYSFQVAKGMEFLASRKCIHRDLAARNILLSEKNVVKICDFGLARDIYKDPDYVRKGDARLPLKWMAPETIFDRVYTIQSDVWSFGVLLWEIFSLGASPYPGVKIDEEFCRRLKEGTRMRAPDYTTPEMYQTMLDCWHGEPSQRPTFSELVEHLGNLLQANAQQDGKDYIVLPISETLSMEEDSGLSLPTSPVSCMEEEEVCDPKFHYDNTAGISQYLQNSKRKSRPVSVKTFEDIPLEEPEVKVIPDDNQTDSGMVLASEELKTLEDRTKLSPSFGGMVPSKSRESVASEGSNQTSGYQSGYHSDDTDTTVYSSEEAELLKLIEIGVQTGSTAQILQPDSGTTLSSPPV
assay metric: pIC50
One number for each entry, as −log10 of the molar value.

Ask: Give the reported pIC50 for this compound. `CC(C)(C)c1cc(NC(=O)Nc2ccc(Nc3ncnc4c3OCCCN4)cc2)no1`
Reply: 6.05

----------
System: BaF3
Assay: Growth inhibition of mouse BaF3 cells harboring RET M918T mutant incubated for 3 days by MTT assay
Type: functional
Details: BaF3, 72 h, time 3 day
assay metric: GI50

Example cases with answers are listed next.
CC(C)(C)c1cc(NC(=O)Nc2ccc(Nc3ncnc4c3OCCN4)c(O)c2)no1    8.81 µM
COc1cc2/c(=N/c3ccc(Br)cc3F)nc[nH]c2cc1OCC1CCN(C)CC1 [VANDETANIB]    0.97 µM
O=C(Nc1ccc(Nc2ncnc3c2OCCN3)cc1)Nc1cc(Cl)cc(Cl)c1    > 10 µM
COc1ccc(NC(=O)Nc2ccc(Nc3ncnc4c3OCCN4)cc2)cc1    > 10 µM
CC(C)(C)c1cc(NC(=O)Nc2cccc(Nc3ncnc4c3OCCN4)c2)no1    > 10 µM
COc1cccc(NC(=O)Nc2ccc(Nc3ncnc4c3OCCN4)cc2)c1    > 10 µM
Cc1ccc(F)c(NC(=O)Nc2ccc(Nc3ncnc4c3OCCN4)cc2)c1    > 10 µM
Cc1cc(C)cc(NC(=O)Nc2ccc(Nc3ncnc4c3OCCN4)cc2)c1    > 10 µM

# input for lookup
Ask: // fetch GI50 given entry `COc1cc(NC(=O)Nc2cc(C(C)(C)C)on2)ccc1Nc1ncnc2c1OCCN2`
Reply: > 10 µM
